- Tested on: MDA-MB-468 breast
- test.summary: NCI-60 one-dose screen, 48 h (100 = growth as untreated, 0 = no growth, -100 = all killed)
- condition.summary: 10 µM unless noted
The panel holds about 83,000 compounds, 20% with a hit somewhere; the sample as a whole holds those more often.
Give yes when the value for growth is at least 40%. Give no when it is less.

Enquiry: Check the entry CCC(c1ccc(OC)cc1)C(CC)c1ccc(O)c(CN2CCCCC2)c1 (configuration not stated) : does growth equal or exceed 40%?
Return: no

Enquiry: In plain terms: is recorded growth at least 40% for CC(C)CC(=O)Nc1n[nH]c2c1CN(C(=O)C1CCN(C)CC1)C2(C)C ?
Return: no

Enquiry: # bool: growth of O=C(Oc1ccc2ccc(=O)oc2c1)c1ccc(Cl)cc1 >= 40%
Return: yes

Enquiry: Is it the case that CCCOC(=O)Nc1nc2ccc(SCC(C)C)cc2s1 has growth reaching or exceeding 40%?
Return: no

Enquiry: Can Cc1nnc2c(Cc3ccccc3)nc3ccccc3n12 be said to have growth at or above 40%?
Return: yes

Enquiry: Confirm if growth reported for the compound COC(=O)CCOc1ccccc1 is 40% or above.
Return: yes

Enquiry: Does the reported growth for CCN(C(=O)Nc1ccccc1Cl)c1ccccc1 fall at or above the 40% mark?
Return: yes

Enquiry: Exam item: decide whether the reported growth for COc1cc2c3c(n([C@H]4CCOC4)c(=O)c2cc1OC)-c1cc2c(cc1C3=O)OCO2 is at least 40%.
Return: no

Enquiry: Could you tell me if the measured growth of N=C(N)c1ccc(-c2ccc(-c3cc(Cl)cc(Cl)c3)s2)nc1 reaches 40% or more?
Return: no

Enquiry: Hello, I need to know if N#Cc1ccc(N2Cc3cc(Cl)ccc3OC3=C2C(=O)N(Cc2ccc(F)cc2)C3=O)cc1 has measured growth not below 40%. Thanks!
Return: no

Enquiry: Could you please find out whether Oc1cc(O)c2c(=S)cc(-c3ccc(Cl)cc3)oc2c1 has growth that meets 40% or exceeds it?
Return: no

Enquiry: Is growth for COc1ccc(CCNC2=CC(=O)CCC2)cc1OC at or above 40%?
Return: yes

Enquiry: Decide: growth of O=C1/C(=C/c2cccc([N+](=O)[O-])c2)COc2ccc(O)cc21 >= 40%?
Return: no

Enquiry: Is reported growth greater than or equal to 40% here: C=CCn1c(SCC(=O)Nc2ccc(C(=O)/C=C/c3cc(OC)c(OC)c(OC)c3)cc2)nnc1-c1ccc(Cl)cc1
Return: no

Enquiry: Check this compound for growth at or above 40%: COc1cc(-c2nc3sccn3c2-c2ccnc(NCCNS(=O)(=O)c3ccc(F)cc3)n2)ccc1F
Return: no

Enquiry: Quick check, growth >= 40%? COc1cc(/C=C2\C(=O)Nc3ccc(N(C)C)cc32)cc(OC)c1OC
Return: no

Enquiry: Dear colleague, could you confirm whether COc1ccc2nc(-c3ccc(Cl)cc3)cc(-c3nnc(SC/C(=N/O)c4ccccc4)o3)c2c1 has growth at or above 40%?
Return: no

Enquiry: Entry CC1=CC(c2ccco2)=C2C(N)=NNC2N1 (configuration not stated) : is its growth no less than 40%?
Return: yes

Enquiry: Say whether O=C(/C=C/c1cc([N+](=O)[O-])ccc1Cl)c1ccccc1 shows growth of 40% or more.
Return: yes

Enquiry: Item CCCCCCCCNC(C)C(O)c1ccc(SC(C)C)cc1 (configuration not stated) with growth of 40% or above?
Return: no

Enquiry: Please check the record COc1ccc(-c2c(C(=O)NS(C)(=O)=O)n(Cc3cccc(C(F)(F)F)c3)c3ccccc23)cc1 and state if its growth is at or above 40%.
Return: yes

Enquiry: Does growth meet or surpass 40% for CCc1nn(Cc2ccccc2)c2nc(C)c(CCc3ccccc3)c(Cl)c12 ?
Return: yes
